Test system: L1210 leukemia ip in BDF1 mice, survival T/C
Assay: NCI In Vivo Anticancer Drug Screen. Data for tumor model L1210 Leukemia (intraperitoneal) in B6D2F1 (BDF1) mice
Conditions: endpoint: mean survival time; dose: 400.0 mg/kg/injection; schedule: Q01DX009 (ip); vehicle: acetone; higher = longer survival
Inconclusive results and toxic doses are left out.
reported endpoint: T/C

What the record says about Cc1cc(C)c(C(=O)C(=S)N2CCOCC2)c(C)c1 : T/C is 96 % of control

Record COC(=O)C1=C(C(=O)OC)C2(OC(C)=O)C=C(OC(C)=O)C1C(C)(C)C2 (stereo not given) , field T/C: 88 % of control

T/C reported for this compound COC(=O)C1(C(=O)OC)C2CC(C)=C(C)CC21 (stereo not given) : 87 % of control

The recorded T/C for CCOC(=O)C(C)C(=O)c1ccccc1 (stereo not given) is 98 % of control

T/C recorded for this compound, CCCC(C(=O)O)N(C)Cc1ccccc1 (stereo not given) , is 97 % of control

---

Tested on: L1210 leukemia ip in BDF1 mice, survival T/C
Experiment: NCI In Vivo Anticancer Drug Screen. Data for tumor model L1210 Leukemia (intraperitoneal) in B6D2F1 (BDF1) mice
Conditions: endpoint: mean survival time; dose: 25.0 mg/kg/injection; schedule: Q04DX002 (ip); vehicle: saline with Tween-80; higher = longer survival
Inconclusive results and toxic doses are left out.
Kindly state T/C for each of the entries shown.

Lab note: CCCCCCCCCCc1ccccc1 gave T/C of 97 % of control

In plain terms, Fc1c(F)c(F)[c]([Hg][c]2c(F)c(F)c(F)c(F)c2F)c(F)c1F has a documented T/C of 97 % of control

Entry under test: C=C(C)C1CCC2(C=O)CCC3(C)C(CCC4C5(C)CCC(OC6CCCCO6)C(C)(C)C5CCC43C)C12 (stereo not given) . Its T/C was 90 % of control

Notebook: COc1ccc(NC(=O)Nc2cccc([N+](=O)[O-])c2OC)cc1 , T/C read as 93 % of control

T/C measured on CC1(C)C2CCC(CN=C(N)CSS(=O)(=O)O)C1C2 (stereo not given) = 93 % of control

---

System: L1210 leukemia ip in BDF1 mice, survival T/C
Experiment: NCI In Vivo Anticancer Drug Screen. Data for tumor model L1210 Leukemia (intraperitoneal) in B6D2F1 (BDF1) mice
Conditions: endpoint: mean survival time; dose: 200.0 mg/kg/injection; schedule: Q04DX003 (ip); vehicle: gum acacia; higher = longer survival
Inconclusive results and toxic doses are left out.
For each record, write down the corresponding T/C.

Simply: CN(NC(=O)CC(=O)NN(C)C(=S)c1ccccc1)C(=S)c1ccccc1 , L1210 leukemia ip in BDF1 mice, survival T/C, T/C = 97 % of control

Tested on L1210 leukemia ip in BDF1 mice, survival T/C: COc1cccc(CCC(=O)O)c1 . Observed T/C: 102 % of control

Record O=CC1CC2c3ccccc3C1c1ccccc12 (centres undefined) has L1210 leukemia ip in BDF1 mice, survival T/C T/C equal to 92 % of control

With L1210 leukemia ip in BDF1 mice, survival T/C as the test system, COc1ccc(-c2c(-c3ccccc3)oc3cc(O)ccc23)cc1 showed T/C of 90 % of control

---

Consider the following compounds; for each one, report its T/C.
Test system: L1210 leukemia ip in BDF1 mice, survival T/C
Experiment: NCI In Vivo Anticancer Drug Screen. Data for tumor model L1210 Leukemia (intraperitoneal) in B6D2F1 (BDF1) mice
Conditions: endpoint: mean survival time; dose: 200.0 mg/kg/injection; schedule: Q04DX003 (ip); vehicle: saline with Tween-80; higher = longer survival
Toxic doses and inconclusive results are not listed.

Measured T/C of [O-][n+]1ccc(Cl)c2ccsc21 : 97 % of control

// CCCCC(O)CCC (configuration not stated) : T/C value = 98 % of control

Form field T/C, entry O=[N+]([O-])c1cc(Cl)ccc1O : 107 % of control

Reported T/C of O=C(O)c1ccccc1/C=C/c1ccccc1 : 101 % of control

The compound CC(=O)Oc1cc(C(c2ccccc2)c2ccccc2)ccc1N(C(C)=O)S(=O)(=O)c1ccccc1 showed T/C equal to 88 % of control

T/C in this record for CCCN(CCC)N=Nc1ccccc1C(N)=O : 94 % of control

Documented T/C of C=CCOC(=O)c1ccccc1N : 101 % of control

---

System: L1210 leukemia ip in BDF1 mice, survival T/C
Test: NCI In Vivo Anticancer Drug Screen. Data for tumor model L1210 Leukemia (intraperitoneal) in B6D2F1 (BDF1) mice
Conditions: endpoint: mean survival time; dose: 50.0 mg/kg/injection; schedule: Q04DX003 (ip); vehicle: saline with Tween-80; higher = longer survival
Inconclusive results and toxic doses are left out.
reported endpoint: T/C

Quick note, T/C for FC(F)c1nc2nc(Cl)c(Cl)nc2[nH]1 landed at 97 % of control

Item: C/C=C/CNc1ccc(C)cc1 | T/C: 90 % of control

For record CCOC(=O)c1ccc(NC(=O)Nc2ccc(NC(C)=O)cc2)cc1 the listed T/C is 86 % of control

Reported T/C ( CCCCCCOC(CN)C(Cl)(Cl)Cl (stereo not drawn) ) = 102 % of control

Record summary for CCCSCCSCCC : reported T/C = 102 % of control

The value of T/C measured for the compound Clc1ccc2nncn2n1 turned out to be 97 % of control

Record summary for O=C(NC(c1ccccc1)c1ccccc1)c1ccccc1 : reported T/C = 94 % of control

Entry CN1CCc2cc3c(cc2C(=O)Cc2ccc4c(c2C1)OCO4)OCO3 ; T/C = 97 % of control

---

System: L1210 leukemia ip in BDF1 mice, survival T/C
Assay: NCI In Vivo Anticancer Drug Screen. Data for tumor model L1210 Leukemia (intraperitoneal) in B6D2F1 (BDF1) mice
Details: endpoint: mean survival time; dose: 50.0 mg/kg/injection; schedule: Q04DX002 (ip); vehicle: saline; higher = longer survival
Inconclusive results and toxic doses are left out.
reported endpoint: T/C

The measured T/C associated with CNCC1OC(n2cc(C)c(=O)[nH]c2=O)CC1O (centres undefined) reads 115 % of control

Note to self: T/C recorded for [NH-]C(CC(N)=O)C(=O)O.[NH-]C(CC(N)=O)C(=O)O.[Zn+2] (centres undefined) was 116 % of control

The recorded T/C for entry COc1cc2c(cc1OC)C(CCC(=O)O)=NCC2 equals 90 % of control

The measured T/C associated with CCCCCN1CCCC(OC(=O)N(C)C)C1 (centres undefined) reads 103 % of control

---

Test system: L1210 leukemia ip in BDF1 mice, survival T/C
Assay: NCI In Vivo Anticancer Drug Screen. Data for tumor model L1210 Leukemia (intraperitoneal) in B6D2F1 (BDF1) mice
Settings: endpoint: mean survival time; dose: 100.0 mg/kg/injection; schedule: Q04DX002 (ip); vehicle: Klucel (hydroxypropylcellulose) (HPC); higher = longer survival
Toxic doses and inconclusive results are not listed.
reported endpoint: T/C

For this compound ( NNC(=O)CNc1ccc(F)c(F)c1 ), measured T/C is 104 % of control

For reference, reported T/C for Cn1c(Cl)c(C=O)c2ccccc21 stands at 93 % of control

Looking up CCOC(=O)c1ccc(NC(=O)c2cccc(Cl)c2)cc1 , I found its T/C recorded as 94 % of control

Input Cc1cnc(NS(=O)(=O)c2ccc(N)cc2)nc1-c1ccccc1O . Output T/C: 98 % of control

// T/C value for Cc1ccc(C(=O)N/N=C/c2ccccc2O)cc1 : 89 % of control

// Cc1no[n+]([O-])c1NC(=O)OCc1ccccc1 : T/C value = 98 % of control

---

System: L1210 leukemia ip in BDF1 mice, survival T/C
Experiment: NCI In Vivo Anticancer Drug Screen. Data for tumor model L1210 Leukemia (intraperitoneal) in B6D2F1 (BDF1) mice
Conditions: endpoint: mean survival time; dose: 100.0 mg/kg/injection; schedule: Q01DX001 (ip); vehicle: saline; higher = longer survival
Toxic doses and inconclusive results are not listed. Peptide text beside a SMILES is read from it. * marks the point of attachment. Cbz = O=C(OCc1ccccc1)*
reported endpoint: T/C

T/C measured on O=C(O)CN1C(=O)CNC12CCCCC2 = 95 % of control

Lab book: T/C of Nc1cccc(/C=C/C=C\c2cccc([N+](=O)[O-])c2)c1 noted as 97 % of control

// sample CCCC1(c2ccccc2)CC(=O)NC1=O (stereo unspecified) , its T/C was 100 % of control

Reported T/C of O/N=C1/CCCCc2ccccc21 : 105 % of control

Form field T/C, entry O=Cc1ccc2c3c(cccc13)CC2 : 96 % of control

molecule CC(CCc1ccccc1)N(C)C(=O)CNC(=O)CN1C(=O)c2ccccc2C1=O (stereo unspecified) , T/C observed: 96 % of control

Measured T/C, CC(=O)OCC1OC(N2CCc3ccccc32)C(OC(C)=O)C(OC(C)=O)C1OC(C)=O (stereo unspecified) : 103 % of control

Recorded result, CCOC(=O)C(Nc1ccc(SC)cc1)c1ccccc1 (stereo unspecified) , T/C: 110 % of control

Sample CCOP(=O)(OCC)OCc1cnc(SC)nc1N ; T/C observed: 108 % of control

Entry O=C(CCCC(=O)NNC(=O)NC(=O)C(Cl)(Cl)Cl)NNC(=O)NC(=O)C(Cl)(Cl)Cl , T/C reported as 96 % of control

Kindly note the recorded T/C for CC(=O)CCCOc1ccc([N+](=O)[O-])cc1 , which is 98 % of control

In plain terms, CN(C)C1c2ccccc2-c2cccc(C(=O)O)c21 (stereo unspecified) has a documented T/C of 108 % of control

# T/C (molecule: CC(=O)N(N=O)c1cc(Cl)ccc1Cl ) is 110 % of control

Record COC(=O)C1CC23C=CCN4CC(C2C)C2(c5ccccc5NC12)C43 (stereo unspecified) , field T/C: 101 % of control

Measured T/C of NS(=O)(=O)c1cc(Br)c(N=Nc2ccc(O)c3ncccc23)c(Br)c1 : 100 % of control

The value of T/C measured for the molecule CC1C(Cl)(Cl)C1(C)/C=C/C1C(C)(C)C1(Cl)Cl (stereo unspecified) turned out to be 106 % of control

response.value for CCC1CN1P1(=O)OCC(C)(C(=O)OC)CO1 (stereo unspecified) (field: T/C) = 101 % of control

Recorded T/C (molecule CC1(C)OC(C)(C)C1(O)C(=O)O ): 97 % of control

Input NOCc1cscn1 . Output T/C: 98 % of control

Entry O=C(CCCC(=O)N/N=C/c1cc(Cl)ccc1[N+](=O)[O-])N/N=C\c1cc(Cl)ccc1[N+](=O)[O-] ; T/C = 90 % of control

O=P(O)(Oc1ccccc1)c1ccccc1 has a reported T/C of 107 % of control

Briefly, T/C measured for O=C(O)[C@@H]1C[C@@H](O)CN1 : 87 % of control

Value of T/C reported for the molecule CN=[N+]([O-])c1ccccc1 is 100 % of control

// COC(=O)C(CC(C)C)NC(=O)C(Cc1ccccc1)NC(=O)C(CO)NC(=O)OCc1ccccc1 (stereo not drawn) (Cbz-Ser-Phe-Leu-OMe; configuration not given here) : T/C value = 93 % of control

Consider O=c1[nH]nc(CF)c(=O)[nH]1 . Its measured T/C is 119 % of control

The molecule listed as CCN(CC)C(=O)c1cccc(N)c1 shows T/C equal to 98 % of control

For Cc1cc(O)c(C(=O)/C=C/c2ccccc2)c(=O)[nH]1 the molecule record lists T/C as 86 % of control

molecule O=C(NC(c1ccccc1)c1ccccc1)c1ccccc1 , T/C observed: 91 % of control

For this molecule ( O=C/C=C/c1ccc([N+](=O)[O-])cc1 ), measured T/C is 104 % of control

molecule CCCCCN(CCCCC)CC(O)C1c2ccccc2Cc2ccccc21 (stereo unspecified) , T/C observed: 101 % of control

Given item c1cc(C2OCCO2)ccn1 , the value recorded as its T/C is 101 % of control

Just so you know, measured T/C for O=c1cc(-c2ccccc2)oc2cc(O)cc(O)c12 came out at 100 % of control

Entry Cc1cc2c(cc1C)N(C(=O)CCl)CCN2C(=O)CCl ; T/C = 104 % of control

Entry O=C(NC1CCCC2CCCCC21)OCCC1CCCCC1 (stereo unspecified) ; T/C = 95 % of control

Looking up CC(=O)c1c(C)cc(=O)[nH]c1O , I see its T/C listed as 107 % of control

Entry CCCCCCCNC(=O)CI , T/C reported as 103 % of control

Per the record, O=C1CC(OC(=O)c2ccccc2)(c2ccccc2)OC(c2ccccc2)=C1c1ccccc1 (stereo unspecified) has T/C of 101 % of control

So, CC(=O)N(CCCc1ccccc1)C(C)(C)C ? Its T/C was 110 % of control

T/C measured on CC(Cc1ccccc1)N(C)C(=O)CN1C(=O)c2ccccc2C1=O (stereo unspecified) = 117 % of control

Briefly, T/C measured for CNc1ccccc1C=O : 94 % of control

Given item C[N+]1(C)C2CCC1[C@H](C(=O)[O-])[C@@H](O)C2 (stereo partly specified) , the value recorded as its T/C is 103 % of control

In plain terms, Cc1cc[n+](Cc2ccc([N+](=O)[O-])cc2)cc1 has a documented T/C of 96 % of control

Lab note: measured T/C of COC1OC(CO)C2OC12 (stereo unspecified) was 104 % of control

So for CCOC(=O)NP(=O)(NC(=O)OCC)NC(=O)OCC , the logged T/C turned out to be 104 % of control

Lookup result for O=C(Cc1ccc2c(c1)OCO2)c1cn(C(=O)Cc2ccc3c(c2)OCO3)c2ccccc12 ; measured T/C: 102 % of control

The recorded T/C for CN(C)C(CCN1CCCCC1)CN1CCCCC1 (stereo unspecified) is 100 % of control

The measured T/C associated with N#CC1C(=O)NC(c2ccccc2)=CC1c1ccccc1 (stereo unspecified) reads 100 % of control

// T/C value for c1ccc([P+](CC2CCCO2)(c2ccccc2)c2ccccc2)cc1 (stereo unspecified) : 113 % of control

Reported T/C ( COc1ccc2cc(C)ncc2c1 ) = 96 % of control

// T/C value for Nc1cc(=O)[nH]c(=S)n1-c1ccc(Br)cc1 : 102 % of control

Documented T/C of O=C1NC(=O)C(CCCCCl)N1 (stereo unspecified) : 91 % of control
